Assay read-out pIC50 on human mPGES-1 (Homo sapiens, UniProt O14684); records merged from the literature.
Sequence (O14684 whole entry): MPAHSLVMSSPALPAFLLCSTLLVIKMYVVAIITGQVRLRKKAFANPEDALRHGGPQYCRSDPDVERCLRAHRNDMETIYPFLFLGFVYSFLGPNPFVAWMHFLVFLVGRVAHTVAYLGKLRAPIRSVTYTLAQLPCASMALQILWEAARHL
pIC50: −log10 of the molar value.
Experimental Readout: pIC50

Below, 2 compounds whose answers are already recorded.
>>> measured("NS(=O)(=O)c1ccccc1S(=O)(=O)NC(=O)c1ccc(C#Cc2cccc(Cl)c2)cc1")
8.36
>>> measured("CC(C)Oc1cc(C(=O)NS(=O)(=O)c2ccccc2S(N)(=O)=O)ccc1C#CC1CCCCC1")
7.85

I: Cc1ccc(CO)cc1-c1nc(O)nc(-c2ccc(C(F)(F)F)cc2)n1
II: Cc1ccc(C#Cc2ccc(C(=O)NS(=O)(=O)c3ccccc3S(N)(=O)=O)cc2OCC(F)F)cc1
// task: argmin of pIC50 over [ I , II ] Answer by stating the label of the chosen item. I
(I: 6.86, II: 8.30)

====

Assay read-out IC50 on UniProt:O14684; records merged from the literature.
Experimental Readout: IC50 (nM)

Below, 2 compounds whose answers are already recorded.
>>> measured("C/C(=C\\c1ccc(Cl)cc1)S(=O)(=O)Nc1c(F)cccc1S(N)(=O)=O")
3100
>>> measured("CC(C)(C)c1cccc(-c2nc(O)nc(-c3cc(CNC(=O)C4(C(F)(F)F)CCCC4)ccc3Cl)n2)c1")
3.1

a: CCOc1c(C)ccc(Cl)c1-c1nc(O)nc(-c2ccc(C(F)(F)F)cc2)n1
b: NS(=O)(=O)c1ccccc1S(=O)(=O)NC(=O)c1ccc(-c2cc3ccccc3o2)c(O)c1
// task: argmin of IC50 over [ a , b ] Answer by stating the label of the chosen item. b
(b: 3.4 nM, a: 202 nM)

====

Assay read-out pIC50 on human mPGES-1 (Homo sapiens, UniProt O14684); records merged from the literature.
pIC50: −log10 of the molar value.
Experimental Readout: pIC50

>>> measured("COc1ccc(Br)cc1/C=C/S(=O)(=O)Nc1ccccc1S(N)(=O)=O")
6.55
>>> measured("O=C(NCc1ccc(Cl)c(-c2nc(O)nc(-c3ccccc3)n2)c1)C1(C(F)(F)F)CCC1")
9.15
>>> measured("NS(=O)(=O)c1ccccc1NS(=O)(=O)c1ccc(Oc2ncc(C(F)(F)F)cc2Cl)cc1")
5.14
>>> measured("COc1cccc(-c2nc(O)nc(-c3c(C)cccc3C)n2)c1")
4.84
>>> measured("NS(=O)(=O)c1cnccc1NS(=O)(=O)CCc1ccc(-c2cc3ccccc3o2)cc1")
6.21
>>> measured("Cc1ccc(/C=C/S(=O)(=O)Nc2ccccc2S(N)(=O)=O)cc1")
5.14
>>> measured("Cc1ccc(COc2cccc(C(F)(F)F)c2-c2nc(O)nc(-c3ccc(C#Cc4ccccc4)cc3)n2)nc1")
8.31
>>> measured("COc1cc(Cl)ccc1CCS(=O)(=O)Nc1ccc(C#N)cc1S(N)(=O)=O")
6.28

A: CC(C)C(=O)N(C)Cc1ccc(Cl)c(-c2nc(O)nc(-c3ccccc3)n2)c1
B: COc1c(C#CC2CCCC2)ccc(C(=O)NS(=O)(=O)c2ccccc2S(N)(=O)=O)c1F
C: NCc1ccc(Cl)c(-c2nc(O)nc(-c3ccc(C(F)(F)F)cc3)n2)c1
D: NS(=O)(=O)c1ccc(F)cc1NS(=O)(=O)/C=C/c1cccc(C(F)(F)F)c1
E: CC(C)(C(=O)NCc1ccc(Cl)c(-c2nc(O)nc(-c3ccc(OC4CCC4)cc3)n2)c1)C(F)(F)F
Order the entries by their reported pIC50, beginning at the minimum. # output: labels, in the requested order D, C, A, B, E

I: CC(C)Oc1cc(C(=O)NS(=O)(=O)c2ccccc2S(N)(=O)=O)ccc1C#Cc1ccc(C(F)(F)F)cc1
II: COc1ncc(-c2cccc(S(=O)(=O)Nc3ccccc3S(N)(=O)=O)c2)cc1F
Which item exceeds the other in pIC50, I or II ? Answer by stating the label of the chosen item. I
(I: 7.27, II: 6.72)

====

Assay read-out pIC50 on human mPGES-1 (Homo sapiens, UniProt O14684); records merged from the literature.
pIC50: −log10 of the molar value.
Experimental Readout: pIC50

Below, 8 molecules whose answers are already recorded.
>>> measured("N#Cc1ccc(/C=C/S(=O)(=O)Nc2cccc(F)c2S(N)(=O)=O)cc1")
5.29
>>> measured("NS(=O)(=O)c1ccccc1NS(=O)(=O)c1cccc(Cl)c1Cl")
6.19
>>> measured("NS(=O)(=O)c1cc(Cl)c(F)cc1NS(=O)(=O)CCc1ccc(Cl)cc1")
6.06
>>> measured("Cc1cccc(C)c1-c1nc(O)nc(-c2ccc(OCC3CCC3)cc2)n1")
7.05
>>> measured("Cc1cccc(COc2cccc(Cl)c2-c2nc(O)nc(-c3ccc(C#Cc4ccccc4)cc3)n2)n1")
8.74
>>> measured("NS(=O)(=O)c1c(F)cccc1NS(=O)(=O)/C=C/c1cccc(C(F)(F)F)c1")
5.21
>>> measured("CCOC(=O)c1c(C(=O)O)c2cc(-c3ccc(C(F)(F)F)cc3)ccc2n1-c1ccc(OC2CCCC2)cc1")
5.72
>>> measured("COCCOCCOc1cc(C(=O)NS(=O)(=O)c2ccccc2S(N)(=O)=O)cnc1-c1cc2ccccc2o1")
7.09

a: Cc1cccc(COc2cccc(C(F)(F)F)c2-c2nc(O)nc(-c3ccc(C#Cc4ccc(Cl)cc4)cc3)n2)n1
b: Cc1cccc(C)c1-c1nc(O)nc(-c2ccc(OC3CCCCC3)cc2)n1
// task: argmin of pIC50 over [ a , b ] Answer by stating the label of the chosen item. b

1: CC1(C)CCN(Cc2ccc(Cl)c(-c3nc(O)nc(-c4ccccc4)n3)c2)C1=O
2: NS(=O)(=O)c1ccccc1NS(=O)(=O)/C=C/c1ccc(-c2cc3ccccc3o2)cc1
3: CN(Cc1ccc(Cl)c(-c2nc(O)nc(-c3ccc(OCC4CCCCC4)cc3)n2)c1)C(=O)C(C)(C)C(F)(F)F
4: NS(=O)(=O)c1cc(CO)ccc1NS(=O)(=O)CCc1ccc(Cl)cc1
Please list the entries, largest pIC50 first. # output: labels, in the requested order 3, 2, 1, 4

A: NS(=O)(=O)c1ccccc1S(=O)(=O)NC(=O)c1ccc(-c2ccccn2)s1
B: Oc1nc(-c2ccc(C#Cc3ccccc3)cc2)nc(-c2c(OCc3ccc(F)cn3)cccc2C(F)(F)F)n1
// task: argmin of pIC50 over [ A , B ] Answer by stating the label of the chosen item. A
(A: 5.80, B: 8.52)

====

Assay read-out pIC50 on human mPGES-1 (Homo sapiens, UniProt O14684); records merged from the literature.
pIC50: −log10 of the molar value.
Experimental Readout: pIC50

Below, 10 compounds whose answers are already recorded.
>>> measured("Cc1cccc(C)c1-c1nc(O)nc(-c2ccc(OCC(C)(C)C)cc2)n1")
6.84
>>> measured("OCCCOc1cccc(Cl)c1-c1nc(O)nc(-c2ccc(C(F)(F)F)cc2)n1")
6.81
>>> measured("Oc1nc(-c2ccc(C(F)(F)F)cc2)nc(-c2c(Cl)cccc2OCc2cccnc2)n1")
6.92
>>> measured("CC(C)OC(=O)NCc1ccc(Cl)c(-c2nc(O)nc(-c3ccc(C(F)(F)F)cc3)n2)c1")
8.72
>>> measured("CCCC(=O)N(C)Cc1ccc(Cl)c(-c2nc(O)nc(-c3ccccc3)n2)c1")
5.38
>>> measured("CCC(O)(C#Cc1ccc(C(=O)NS(=O)(=O)c2ccccc2S(N)(=O)=O)cc1)CC")
5.64
>>> measured("CC(C)(C)C(=O)NCc1ccc(Cl)c(-c2nc(O)nc(-c3cccc(C(F)(F)F)c3)n2)c1")
9.05
>>> measured("Cn1nc(-c2ccc(S(=O)(=O)Nc3ccccc3S(N)(=O)=O)s2)cc1C(F)(F)F")
5.28
>>> measured("Cc1ccc(NS(=O)(=O)CCc2ccc(Cl)cc2)c(S(N)(=O)=O)c1")
5.89
>>> measured("CC(C)(C(=O)NCc1ccc(Cl)c(-c2nc(O)nc(-c3cccc(OCC(F)(F)F)c3)n2)c1)C(F)(F)F")
9.15

I: COc1cc(Cl)ccc1/C=C/S(=O)(=O)Nc1ccccc1S(N)(=O)=O
II: COc1cc(Cl)ccc1CCS(=O)(=O)Nc1cc(F)cc(F)c1S(N)(=O)=O
// task: argmin of pIC50 over [ I , II ] Answer by stating the label of the chosen item. II
(II: 6.54, I: 7.44)

a: Cc1cccc(C)c1-c1nc(O)nc(-c2ccc(C(F)(F)F)cc2)n1
b: N#Cc1ccccc1CCOc1cc(Cl)ccc1CCS(=O)(=O)Nc1ccccc1S(N)(=O)=O
Which item exceeds the other in pIC50, a or b ? Answer by stating the label of the chosen item. b

P: COc1cc(C(=O)NS(=O)(=O)c2ccccc2S(N)(=O)=O)ccc1OCc1ccc(C)cc1
Q: NS(=O)(=O)c1ccccc1S(=O)(=O)NC(=O)c1ccc2oc(-c3cccnc3)cc2c1
Which item exceeds the other in pIC50, P or Q ? Answer by stating the label of the chosen item. P

A: Cc1ccc(CCS(=O)(=O)Nc2ccccc2S(N)(=O)=O)c(OCC2CCC(F)(F)CC2)c1
B: NS(=O)(=O)c1c(NS(=O)(=O)CCc2ccc(Cl)c(Cl)c2)ccc2c1CCC2
C: COCC(C)(C)C(=O)N(C)Cc1ccc(Cl)c(-c2nc(O)nc(-c3ccccc3)n2)c1
Order the entries by their reported pIC50, beginning at the minimum. # output: labels, in the requested order B, C, A
(B: 5.34, C: 6.37, A: 8.14)
